Biological target: T1, soluble mouse GPNMB (recombinant extracellular domain) (mouse, UniProt Q99P91 23-502)
T1 construct: also called moGPNMB; not shown: C-terminal polyhistidine or Avi-His tag
T1 sequence: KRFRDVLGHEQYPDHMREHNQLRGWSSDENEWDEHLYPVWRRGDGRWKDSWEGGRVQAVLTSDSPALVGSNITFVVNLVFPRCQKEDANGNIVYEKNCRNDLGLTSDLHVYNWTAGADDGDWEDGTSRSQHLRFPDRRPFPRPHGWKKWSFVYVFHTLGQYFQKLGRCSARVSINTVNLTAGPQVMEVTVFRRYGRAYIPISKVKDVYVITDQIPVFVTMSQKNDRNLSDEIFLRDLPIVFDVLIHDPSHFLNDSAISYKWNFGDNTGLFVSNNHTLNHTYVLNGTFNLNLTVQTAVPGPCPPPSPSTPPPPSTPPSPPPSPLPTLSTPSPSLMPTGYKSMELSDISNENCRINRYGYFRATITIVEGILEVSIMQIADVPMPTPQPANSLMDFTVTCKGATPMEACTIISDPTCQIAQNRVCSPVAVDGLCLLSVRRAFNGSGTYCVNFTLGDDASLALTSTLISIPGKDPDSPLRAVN
Assay: SPR Carterra, Ab immobilized
Recorded Kd for the following binders
Note: unit pM is implicit; provide only the numeric part.

Some binders with known Kd results, for comparison:
# BINDER, OUTPUT UNIT, TEST VALUE
rows = [
    ("anti-GPNMB antibody GPN-38 (antibody, human IgG1, V domains shown, chimeric) VH: QVQLQQPGAELVRPGTSVRLSCKASGYTFTSYWIHWVKQRPGRGLEWIGVIDPSDSYTNYNQQFNVKATLTVDTSSSAAYMQLSSLTSEDSAVYYCARGLITAVNWYFDVWGTGTTVTVSS VL: DIQMTQSPASLSTSVGEIVTITCRASENIYSYLTWYQQKQGKSPQLLVYNAKTLAEGVPSRFSGSGSGTQFSLKINSLQPEDFGTYYCQHHYGTPLTFGSGTKLEIK", "pM", 3450),
    ("anti-GPNMB antibody GPN-65 (antibody, human IgG1, V domains shown, chimeric) VH: QLQLQQSGTEVVKPGASVKIPCKASGYAFSSYWMNWVKQRPGKGLEWIGQIYPGDGDTNDNGKFEGKATLTVDKSSNTAYIQLSSLTSEDSAVYFCARSPLHLRGSMDYWGQGTSVTVSS VL: SIVMTQTPKFLLVSAGDRVTITCKASQSVSNDVAWFQQKPGQSPELLIYSASNRYTGVPDRFTGSGYGTDFTFTISTVQAEDLAVYFCQQNYYSPFTFGGGTRLEIK", "pM", 500),
    ("anti-GPNMB antibody GPN-35 (antibody, human IgG1, V domains shown, chimeric) VH: EVQLVESGGGSVRPGRSLKLSCAAAGFTFSDYYMTWVRQAPTKGLEWVASINHDGGGTYYRDSVKGRFTISRDNARSSLYLQMDSLRSEDTGTYYCTTRAGWHWGQGVMVTVSS VL: DIQMTQSPASLSASLGETVSIECLASEDIYNYLTWYQQKPGKSPQVLIYSASGLQDGVPSRFSGSGSGRQYSLKINGLESEDAATYFCLQDSEYPLTFGSGTKLEIK", "pM", 2100),
]

Read the next record carefully.
# input Please give the measured Kd for this binder: anti-GPNMB antibody GPN-41 (antibody, human IgG1, V domains shown, chimeric) VH: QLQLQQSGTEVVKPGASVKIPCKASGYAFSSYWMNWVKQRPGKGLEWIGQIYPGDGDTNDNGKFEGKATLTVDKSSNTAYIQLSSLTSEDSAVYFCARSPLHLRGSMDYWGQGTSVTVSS VL: SIVMTQTPKFLLVSAGDRVTITCKASQSVSNDVAWFQQKPGQSPELLIYSASNRYTGVPDRFTASGYGTDFTFTISAVQAEDLAVYFCQQNYYSPFTFGGGTRLEIK
# output 400
